Hey, just so you know, these numbers are from PubChem BioAssay AID256.

system: CD2F1 mice, L1210 leukemia ip, survival T/C; assay: NCI In Vivo Anticancer Drug Screen. Data for tumor model L1210 Leukemia (intraperitoneal) in CD2F1 (CDF1) mice; settings: endpoint: mean survival time; dose: 300.0 mg/kg/injection; schedule: Q01DX001 (ip); vehicle: saline; higher = longer survival
Inconclusive results and toxic doses are left out.

>  <compound>
N#CC(=C1CCCCC1)c1ccccc1

>  <experimental-target>
CD2F1 mice, L1210 leukemia ip, survival T/C

>  <T/C>
96 % of control

$$$$
>  <compound>
O=C(C1CC=C2c3ccccc3CCC2C1C(=O)N1CCCCC1)N1CCCCC1 (configuration not stated)

>  <experimental-target>
CD2F1 mice, L1210 leukemia ip, survival T/C

>  <T/C>
107 % of control

$$$$
>  <compound>
NCc1ccc(N)cc1

>  <experimental-target>
CD2F1 mice, L1210 leukemia ip, survival T/C

>  <T/C>
96 % of control

$$$$
>  <compound>
O=C(OCC(F)(F)F)C(Cl)(Cl)Cl

>  <experimental-target>
CD2F1 mice, L1210 leukemia ip, survival T/C

>  <T/C>
107 % of control

$$$$
>  <compound>
COc1ccc2nc3cc(Cl)ccc3c(Nc3ccc(C(O)CCN(C)C)cc3)c2c1 (configuration not stated)

>  <experimental-target>
CD2F1 mice, L1210 leukemia ip, survival T/C

>  <T/C>
90 % of control

$$$$
>  <compound>
CC(=O)NC1=C(Sc2ccc(C)cc2)C(=O)c2ccccc2C1=O

>  <experimental-target>
CD2F1 mice, L1210 leukemia ip, survival T/C

>  <T/C>
108 % of control

$$$$
>  <compound>
O=NN1CCCCCC1=O

>  <experimental-target>
CD2F1 mice, L1210 leukemia ip, survival T/C

>  <T/C>
120 % of control

$$$$
